target: T1, alpha4beta7 on 38C13 alpha4+ murine lymphoma cells transfected with integrin beta7 (38C13beta7 cells) (murine, UniProt Q00651 41-1039; P26011 20-806); assay: cell adhesion inhibition, 38C13beta7 cells on coated muMAdCAM-1-Ig, experiment 1 of 2
T1 construct: whole, on cells; also called 38C13-beta7 expressing cells; murine beta7-containing receptor
T1 sequence (Q00651 41-1039, chain 1 of 2): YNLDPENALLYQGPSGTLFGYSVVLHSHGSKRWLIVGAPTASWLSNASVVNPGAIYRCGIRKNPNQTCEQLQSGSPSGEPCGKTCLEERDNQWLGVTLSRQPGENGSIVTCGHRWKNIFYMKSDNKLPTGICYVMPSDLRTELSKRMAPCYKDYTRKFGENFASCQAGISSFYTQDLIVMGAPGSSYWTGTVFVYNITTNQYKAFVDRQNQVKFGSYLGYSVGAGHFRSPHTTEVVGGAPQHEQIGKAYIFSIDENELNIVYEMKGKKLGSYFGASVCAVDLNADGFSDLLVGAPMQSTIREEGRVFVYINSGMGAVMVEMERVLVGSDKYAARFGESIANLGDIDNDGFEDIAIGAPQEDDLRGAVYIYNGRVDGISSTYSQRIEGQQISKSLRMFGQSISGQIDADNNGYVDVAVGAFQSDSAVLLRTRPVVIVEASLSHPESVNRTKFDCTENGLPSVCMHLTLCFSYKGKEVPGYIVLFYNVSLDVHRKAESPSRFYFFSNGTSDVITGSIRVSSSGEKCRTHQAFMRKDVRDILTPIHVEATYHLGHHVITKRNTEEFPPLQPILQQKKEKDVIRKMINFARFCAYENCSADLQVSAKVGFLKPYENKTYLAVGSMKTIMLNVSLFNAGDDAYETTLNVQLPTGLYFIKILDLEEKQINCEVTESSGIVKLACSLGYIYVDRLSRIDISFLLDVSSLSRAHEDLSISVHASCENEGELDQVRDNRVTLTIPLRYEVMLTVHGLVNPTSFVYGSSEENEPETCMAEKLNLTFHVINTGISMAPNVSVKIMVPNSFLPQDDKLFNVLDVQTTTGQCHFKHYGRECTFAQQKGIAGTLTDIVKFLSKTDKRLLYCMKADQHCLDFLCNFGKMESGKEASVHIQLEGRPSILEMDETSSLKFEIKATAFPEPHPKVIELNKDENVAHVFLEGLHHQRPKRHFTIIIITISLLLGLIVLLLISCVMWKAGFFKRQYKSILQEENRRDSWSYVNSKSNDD
T1 sequence (P26011 20-806, chain 2 of 2): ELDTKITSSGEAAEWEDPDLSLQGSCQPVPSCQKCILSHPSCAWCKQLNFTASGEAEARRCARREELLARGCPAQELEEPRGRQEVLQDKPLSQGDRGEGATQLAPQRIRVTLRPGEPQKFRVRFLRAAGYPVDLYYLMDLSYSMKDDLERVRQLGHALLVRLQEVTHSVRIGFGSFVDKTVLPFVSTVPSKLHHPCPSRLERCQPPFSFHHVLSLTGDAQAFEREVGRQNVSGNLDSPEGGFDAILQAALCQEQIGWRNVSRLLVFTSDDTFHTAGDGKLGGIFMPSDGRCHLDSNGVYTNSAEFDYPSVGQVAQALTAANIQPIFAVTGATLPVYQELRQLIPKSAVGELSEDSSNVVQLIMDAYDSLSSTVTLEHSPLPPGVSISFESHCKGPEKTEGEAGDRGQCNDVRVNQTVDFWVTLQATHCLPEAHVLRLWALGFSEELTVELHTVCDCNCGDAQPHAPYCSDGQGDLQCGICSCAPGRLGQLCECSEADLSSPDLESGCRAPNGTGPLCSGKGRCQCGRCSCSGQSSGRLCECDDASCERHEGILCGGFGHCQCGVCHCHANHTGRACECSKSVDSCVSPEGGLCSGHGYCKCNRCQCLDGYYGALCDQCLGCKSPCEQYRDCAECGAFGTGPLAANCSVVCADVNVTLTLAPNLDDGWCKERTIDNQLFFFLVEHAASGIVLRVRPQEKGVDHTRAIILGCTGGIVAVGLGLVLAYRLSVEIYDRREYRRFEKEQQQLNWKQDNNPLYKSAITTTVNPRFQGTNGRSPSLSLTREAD
Reported IC50 values for the following binders.
Expressed in nM, but write only the number.

Worked examples follow.
binder="Variant hu504.32, IgG (antibody, V domains shown, methionine at heavy chain position 94; also called hu504.32M; 504.32M) VH: EVQLVESGGGLVQPGGSLRLSCAASGFFITNNYWGWVRQAPGKGLEWVGYISYSGSTSYNPSLKSRFTISRDTSKNTFYLQMNSLRAEDTAVYYCAMTGSSGYFDFWGQGTLVTVSS VL: DIQMTQSPSSLSASVGDRVTITCRASESVDDLLHWYQQKPGKAPKLLIKYASQSISGVPSRFSGSGSGTDFTLTISSLQPEDFATYYCQQGNSLPNTFGQGTKVEIKR" assay_metric=IC50 numeric_result=0.718
binder="Rat Fib504 (antibody FIB504.64 produced by hybridoma ATCC HB-293) (antibody, V domains shown, Whole rat antibody in the cell adhesion assays; also called rat anti-mouse beta7 antibody) VH: EVQLQESGPGLVKPSQSLSLTCSVTGFFITNNYWGWIRKFPGNKMEWMGYISYSGSTSYNPSLKSRISITRDTSKNQFFLQLNSVTTEDTATYYCAMTGSSGYFDFWGPGTMVTVSS VL: DVVMTQSPATLSVTPGERISLSCRASESVDTYLHWYQQKPNESPRLLIKYASQSISGIPSRFSGSGSGTDFTLSINGVELEDLSIYYCQQGNSLPNTFGAGTKLELKR" assay_metric=IC50 numeric_result=0.682
binder="Variant hu504.5, IgG (antibody, name in Kabat numbering, V domains shown) VH: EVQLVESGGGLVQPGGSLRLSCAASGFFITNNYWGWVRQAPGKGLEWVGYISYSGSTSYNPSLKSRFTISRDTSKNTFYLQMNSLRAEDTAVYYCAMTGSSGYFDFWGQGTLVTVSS VL: DIQMTQSPSSLSASVGDRVTITCRASESVDSLLHWYQQKPGKAPKLLIKYASQSISGVPSRFSGSGSGTDFTLTISSLQPEDFATYYCQQGNSLPNTFGQGTKVEIKR" assay_metric=IC50 numeric_result=0.859

In the following, a different binder is considered.
Which measured IC50 value corresponds to Variant hu504.16, IgG (antibody, name in Kabat numbering, V domains shown) VH: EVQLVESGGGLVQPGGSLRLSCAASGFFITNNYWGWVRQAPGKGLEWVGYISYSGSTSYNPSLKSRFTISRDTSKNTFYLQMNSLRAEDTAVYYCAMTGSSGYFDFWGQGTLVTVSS VL: DIQMTQSPSSLSASVGDRVTITCRASESVDTLLHWYQQKPGKAPKLLIKYASQSISGVPSRFSGSGSGTDFTLTISSLQPEDFATYYCQQGNSLPNTFGQGTKVEIKR ?
0.998

The reported numbers originate from patent US20090226437A1.
